system: protein titer of dupilumab production cell culture; assay: LC-MS analysis of HEPES related impurities and titer correlation evaluation across cell culture production runs; format: cell-based; settings: correlation of impurity abundance with final titer; 5 HEPES salt lots
So I've got a bunch of compounds here, and I need their Pearson Correlation Coefficient, 5 HEPES salt lots values.
Numbers only.

O=CN1CCN(CCS(=O)(=O)O)CC1 [HEPES−[CH4]] = −0.85
CC(=O)NCS(=O)(=O)O = −0.81
O=CN(CCO)CCN(C=O)CCS(=O)(=O)O [HEPES+[O2]−[H2]] = −0.82

Would you mind listing Pearson Correlation Coefficient, 5 HEPES salt lots for each of the following compounds?
1. O=S(=O)(O)CC(O)O [2,2-Dihydroxyethane-sulfonic acid]
2. C=CS(=O)(=O)O

[A]
−0.85
−0.60
